- TESTED TARGET: androgen receptor (Homo sapiens, UniProt P10275, T878A)
- Construct: host or cells: LNCaP.FGC
- Sequence (P10275 whole entry T878A): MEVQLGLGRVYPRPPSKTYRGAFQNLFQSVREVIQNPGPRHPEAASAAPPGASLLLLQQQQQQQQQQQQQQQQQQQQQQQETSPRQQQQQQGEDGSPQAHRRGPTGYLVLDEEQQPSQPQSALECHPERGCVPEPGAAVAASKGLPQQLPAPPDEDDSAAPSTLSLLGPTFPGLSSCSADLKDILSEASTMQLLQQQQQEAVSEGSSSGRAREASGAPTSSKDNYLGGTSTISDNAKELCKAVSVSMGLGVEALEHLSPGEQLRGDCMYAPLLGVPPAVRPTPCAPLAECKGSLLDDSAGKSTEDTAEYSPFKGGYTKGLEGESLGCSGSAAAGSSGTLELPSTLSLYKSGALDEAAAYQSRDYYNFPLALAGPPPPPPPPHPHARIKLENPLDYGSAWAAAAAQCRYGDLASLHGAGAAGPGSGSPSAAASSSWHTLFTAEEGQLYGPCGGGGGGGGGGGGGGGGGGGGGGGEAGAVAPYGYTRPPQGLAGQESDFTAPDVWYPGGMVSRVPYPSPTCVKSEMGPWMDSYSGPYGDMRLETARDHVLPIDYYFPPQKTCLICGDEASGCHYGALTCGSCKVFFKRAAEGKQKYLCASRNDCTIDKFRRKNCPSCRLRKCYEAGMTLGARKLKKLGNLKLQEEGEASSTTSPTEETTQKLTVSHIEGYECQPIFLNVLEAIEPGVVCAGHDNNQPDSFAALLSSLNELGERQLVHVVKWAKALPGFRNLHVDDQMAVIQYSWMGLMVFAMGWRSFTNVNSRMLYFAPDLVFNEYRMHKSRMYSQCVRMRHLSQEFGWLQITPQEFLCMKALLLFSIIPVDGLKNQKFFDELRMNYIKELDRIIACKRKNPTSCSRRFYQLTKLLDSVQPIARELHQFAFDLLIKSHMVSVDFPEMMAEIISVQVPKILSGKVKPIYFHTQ
- Sequence (Q96SW2 whole entry partner): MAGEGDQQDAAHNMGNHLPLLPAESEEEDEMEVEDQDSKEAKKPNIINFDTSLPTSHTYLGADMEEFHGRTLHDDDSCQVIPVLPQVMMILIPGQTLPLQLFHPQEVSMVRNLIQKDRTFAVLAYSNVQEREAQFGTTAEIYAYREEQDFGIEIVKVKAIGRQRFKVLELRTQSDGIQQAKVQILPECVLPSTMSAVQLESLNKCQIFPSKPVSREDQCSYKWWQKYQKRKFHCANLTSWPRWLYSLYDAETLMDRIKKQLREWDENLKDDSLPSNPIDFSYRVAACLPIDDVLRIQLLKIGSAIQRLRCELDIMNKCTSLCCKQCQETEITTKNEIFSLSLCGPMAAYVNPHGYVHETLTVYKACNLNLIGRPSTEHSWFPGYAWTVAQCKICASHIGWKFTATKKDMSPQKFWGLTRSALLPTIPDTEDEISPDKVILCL
- ASSAY SUMMARY: Androgen receptor degradation assay using Western blot analysis
- Assay type: cell-based
- EXPERIMENTAL CONDITIONS: 24 h, read-out: Androgen Receptor Remaining (%), LNCaP.FGC cells, 100 nM, 24 hr, normalized to GAPDH, untreated cells = 100%
VALUE TYPE: remaining activity at 0.1 µM

Some molecules with recorded remaining activity at 0.1 µM:
- CCn1c2c(c3ccc(OCCCCN4CCCN(c5ccc(C(=O)N[C@H]6CC[C@H](Oc7ccc(C#N)c(Cl)c7)CC6)nn5)CC4)cc31)C(=O)N(C1CCC(=O)NC1=O)C2=O (stereo partly drawn): 28%
- CCn1c2c(c3ccc(OCCC4CCN(c5ccc(C(=O)N[C@H]6CC[C@H](Oc7ccc(C#N)c(Cl)c7)CC6)nn5)CC4)cc31)C(=O)N(C1CCC(=O)NC1=O)C2=O (stereo partly drawn): 56%

# input for lookup
Prompt: Please list remaining activity at 0.1 µM recorded for the molecule CCn1c2c(c3ccc(OCCOC4CCN(c5ccc(C(=O)N[C@H]6CC[C@H](N(C)c7ccc(C#N)c(Cl)c7)CC6)nn5)CC4)cc31)C(=O)N(C1CCC(=O)NC1=O)C2=O (stereo partly drawn)
Response: 33%

====

- TESTED TARGET: androgen receptor (Homo sapiens, UniProt P10275, T878A)
- Construct: host or cells: LNCaP.FGC
- ASSAY SUMMARY: Androgen receptor degradation assay using Western blot analysis
- Type: cell-based
- EXPERIMENTAL CONDITIONS: 24 h, LNCaP.FGC cells, 100 nM, 24 hr, normalized to GAPDH, untreated cells = 100%; read-out: Androgen Receptor Remaining (%)
Measured remaining activity at 0.1 µM, listed per entry.
// units = %; emit number, no label

• Cn1c2c(c3ccc(OCCN4CCN(c5ccc(C(=O)N[C@H]6C(C)(C)[C@H](Oc7ccc(C#N)c(Cl)c7)C6(C)C)cn5)CC4)cc31)C(=O)N(C1CCC(=O)NC1=O)C2=O (some centres unmarked) = 31
• Cn1c2c(c3ccc(NC(=O)CN4CCC5(CC4)CN(c4ccc(C(=O)N[C@H]6C(C)(C)[C@H](Oc7ccc(C#N)c(Cl)c7)C6(C)C)nn4)C5)cc31)C(=O)N(C1CCC(=O)NC1=O)C2=O (some centres unmarked) = 51
• Cn1c2c(c3cc(OCCN4CCN(c5ccc(C(=O)N[C@H]6C(C)(C)[C@H](Oc7ccc(C#N)c(Cl)c7)C6(C)C)cn5)CC4)ccc31)C(=O)N(C1CCC(=O)NC1=O)C2=O (some centres unmarked) = 73

Prompt: Please list remaining activity at 0.1 µM recorded for the molecule Cn1c2c(c3ccc(NC(=O)CN4CCCN(c5ccc(C(=O)N[C@H]6CC[C@H](Oc7ccc(C#N)c(Cl)c7)CC6)nn5)CC4)cc31)C(=O)N(C1CCC(=O)NC1=O)C2=O (some centres unmarked)
Response: 81

Prompt: Please list remaining activity at 0.1 µM recorded for the molecule Cn1c2c(c3ccc(OCC4CCN(c5ccc(C(=O)N[C@H]6CC[C@H](Oc7ccc(C#N)c(Cl)c7)CC6)cn5)CC4)cc31)C(=O)N(C1CCC(=O)NC1=O)C2=O (some centres unmarked)
Response: 75

Prompt: Please list remaining activity at 0.1 µM recorded for the molecule N#Cc1ccc(O[C@H]2CC[C@H](NC(=O)c3ccc(N4CCN(CCCOc5ccc6c7c([nH]c6c5)C(=O)N(C5CCC(=O)NC5=O)C7=O)CC4)nn3)CC2)cc1Cl (some centres unmarked)
Response: 20
